target-system: T1, PHD1 (KDM5C residues 318–378) (human, UniProt P41229-1 318-378)
T1 chain: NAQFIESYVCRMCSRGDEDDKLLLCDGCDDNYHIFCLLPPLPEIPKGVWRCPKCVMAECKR
assay-explanation: NMR; from D343
pKd: −log10 of the molar value.
Reported values of pKd for individual entries

{"columns": ["binder", "pKd"],
 "data": [
  ["ARTKQTARKSTGGKAPRK [H3 (1–18) tail peptide]", 3.85],
  ["Ac-QSVQPSKFNSYGRRAKRLQP-NH2 [KDM5C (199–218) peptide]", 3.36]
]}
